Consider molecules characterized by their pIC50 with UniProt P0DTD1.
pIC50: −log10 of the molar value.

[
  {
    "structure-string": "CC1(C)[C@@H]2[C@H]3C(=O)N[C@H](C#N)CCC(=O)NCCCCCCCC[C@H](NC(=O)C(F)(F)F)C(=O)N3C[C@@H]21",
    "pIC50": 6.42
  },
  {
    "structure-string": "CC1(C)[C@@H]2[C@H]3C(=O)N[C@H](C#N)CCC(=O)NCCC/C=C/CCC[C@H](NC(=O)C(F)(F)F)C(=O)N3C[C@@H]21",
    "pIC50": 6.86
  },
  {
    "structure-string": "CC1(C)[C@@H]2[C@H]3C(=O)N[C@H](C#N)CCC(=O)NCCCCCC[C@H](NC(=O)C(F)(F)F)C(=O)N3C[C@@H]21",
    "pIC50": 7.80
  },
  {
    "structure-string": "CC1(C)[C@@H]2[C@H]3C(=O)N[C@H](C#N)CCC(=O)NCCC/C=C\\CC[C@H](NC(=O)C(F)(F)F)C(=O)N3C[C@@H]21",
    "pIC50": 6.39
  },
  {
    "structure-string": "CC1(C)[C@@H]2[C@H]3C(=O)N[C@H](C#N)CCC(=O)NCCCCCCC[C@H](NC(=O)C(F)(F)F)C(=O)N3C[C@@H]21",
    "pIC50": 6.60
  }
]
